# Tested on: HT29 colon
# assay.remarks: NCI tumour cell line growth inhibition, 48 h
readout.name: TGI

Known TGI results, listed for orientation:
Cn1c2ccccc2n2c3ccccc3c(=S)c(C#N)c12	> 100 µM
COC(=O)[C@H]1ON2O[C@@H](O[C@H]3CCCC[C@@H]3C(C)(C)c3ccccc3)C[C@@H]3CC[C@H]1[C@@]32C	> 100 µM
C/C=C/[C@@H]1O[C@H](CC#C[Si](C)(C)C)[C@@]2(C=O)C(C)=CC[C@H](C(C)C)[C@@H]12	46.2 µM
CC(C)(N=NC(C)(C)C1=NCCN1)C1=NCCN1	> 100 µM
CCOC(=O)c1c(NC(=O)c2ccccc2)sc2c1CCC2	> 100 µM

Turning now to a further record.
q: Return reported TGI; argument: "CCOC(=O)CC[C@@H](NC(=O)c1ccc(NCc2ccc3nc(OC)c(OC)nc3c2)cc1)C(=O)OCC"
a: > 100 µM

---

# Tested on: A498 renal
# assay.remarks: NCI tumour cell line growth inhibition, 48 h
Label scheme for TGI: lower than 20 µM is class 0, 20 µM and above is class 1.

Example results:
Cn1c2ccc([N+](=O)[O-])cc2c(=O)c2c(O)cc(O)cc21	class 1
Cc1cc(S(N)(=O)=O)c(S/C(=N\Nc2ccc([N+](=O)[O-])cc2)c2ccc(Cl)cc2)cc1Cl	class 1
O=S(=O)(O)Nc1ccc(-c2nc3ccccc3s2)cc1Cl	class 1
CC(=O)Oc1cccc2c1C(=O)C(Br)(Br)CCC2	class 1
Cc1ccc(NC2=C(Sc3ccc(Cl)cc3)C(=O)N(Cc3ccccc3)C2=O)cc1Cl	class 0
CCc1oc2ccccc2c1C(=O)c1cc(Br)c(O)c(Br)c1	class 1
CC(=O)/C=C/c1c[nH]c(=O)[nH]c1=O	class 1
OCCCN(CCc1ccc(Cl)c(Cl)c1)CCN1CCCC1	class 1

q: Entry "CCO[C@H]1C[C@@H](c2ccccc2)[C@]2(C)C[C@H](C(=O)OC)ON2O1" : is its TGI no less than 20 µM?
a: class 1

q: Quick check: does "CSc1cc(Cl)c(C)cc1S(=O)(=O)NC(=O)NNc1ccccn1" have TGI greater than or equal to 20 µM?
a: class 1

q: Could you please find out whether "Cc1cc(N/N=C/c2nc(-c3ccccc3)oc2C)c2cc(Cl)ccc2n1" has TGI that meets 20 µM or exceeds it?
a: class 0

q: Form field: TGI at least 20 µM? Entry: "COc1ccc(C=NC23CC4CC(CC(C4)C2)C3)cc1"
a: class 1

q: Identify whether the reported TGI of the following compound is 20 µM or greater: "CO/N=C1/NC(=O)/C(=C/c2ccc3ncccc3c2)S1"
a: class 0

q: # check: TGI of "CCOC(=O)c1c(NC(=O)c2ccccc2)sc2c1CCC2" is greater than or equal to 20 µM
a: class 1

q: Evaluate "C(/C=N/NC1=NCCN1)=N\NC1=NCCN1" : TGI at minimum 20 µM?
a: class 1

---

# Test system: K-562 leukemia
# assay.remarks: NCI tumour cell line growth inhibition, 48 h; in the data active = GI50 below about 0.43 µM; inactive = the rest
Valid outcomes are listed here; reply with one: active, inactive

Study these solved cases before continuing.
O=C1C(Cl)=C(N2CCOCC2)C(=O)c2ccccc21	inactive
COc1cc(-c2cc(-c3nc4ccccc4[nH]3)[nH]n2)cc(OC)c1OC	inactive
Cc1ccc(NC2=C(Sc3ccc(Cl)cc3)C(=O)N(Cc3ccccc3)C2=O)cc1Cl	inactive

q: Check the results log: what was the call for "CCOc1cc2ncc(C#N)c(Nc3ccc(F)c(Cl)c3)c2cc1NC(=O)/C=C/CN(C)C" ?
a: active

q: Check the results log: what was the call for "C#CC[C@H](c1nc2cc(Cl)ccc2c(=O)n1Nc1ccccc1)N(CCCN)C(=O)c1cccc(Cl)c1F" ?
a: active

Hello, the source for this data is PubChem BioAssay (NCI), in case you need it.
